From: a melting point compilation (Tetko et al.)

Listed here: items and their measured melting point.
State the answer as a number, implicitly in °C.

For orientation, consider the following solved cases.
OC(c1ccccc1)c1cccc(C(F)(F)F)c1 (stereo unspecified)
63
OCC1OC(OC2OC(CO)C(O)C(O)C2O)C(O)C(O)C1O (stereo unspecified)
203
CCCCCCCCCCCCCCCC(=O)Oc1ccc(N=Cc2cccnc2)cc1
87.6

GET /value?item= COc1cc2c(cc1C)C(C#N)C2 (stereo unspecified) &field=melting point returns 67

GET /value?item= c1ccc(Cc2cccc3ccccc23)cc1 &field=melting point returns 59.5

GET /value?item= O=C(O)C(C(=O)O)c1ccsc1 &field=melting point returns 139

GET /value?item= CC(=O)OC[C@H]1O[C@@H](OC(C)=O)[C@H](NC(=O)OCc2ccccc2)[C@@H](OC(C)=O)[C@@H]1OC(C)=O &field=melting point returns 150

GET /value?item= CCC(=O)c1ccc2c(c1)N(CCCN(C)C)c1ccccc1S2 &field=melting point returns 69.5

GET /value?item= N#CC(=C1CCCC1)c1nc2ccccc2s1 &field=melting point returns 235

GET /value?item= Brc1c(Br)c(Br)c2c(c1Br)Oc1c(Br)c(Br)c(Br)c(Br)c1O2 &field=melting point returns 376
